system: CCRF-CEM; assay: NCI tumour cell line growth inhibition, 48 h
Activity calls are given as the source filed them. No stated cut-off is given here; in the data, active = GI50 up to about 1.1 µM and inactive = higher.
observed.property: GI50

The cases that follow already have their GI50 on record.
| compound | obs.value |
| --- | --- |
| COc1ccc(O)c(/C(C)=N/NC(=S)N(C)C)c1 | 8.93 µM (inactive) |
| COC(=O)c1c2c(cc3c1CC1(Cc4ccc(C(C)=O)cc4C1)C3)CCC2 (stereo unspecified) | 27.7 µM (inactive) |
| COc1ccc2nc3c(c(N)c2c1)C1CCC3C1(C)C (stereo unspecified) | 14.1 µM (inactive) |
| COc1ccc(/N=N/C(=O)NC(CC(C)C)C(=O)NCC(=O)O)cc1 (stereo unspecified) | 9.31 µM (inactive) |
| O=C(O)c1c[nH]cc1C(=O)O | > 100 µM (inactive) |

Okay, next one:
Problem: Which GI50 is reported with CCRF-CEM for this entry: COc1ccc(-c2cc(-c3ccc(Nc4ccnc5cc(Cl)ccc45)cc3)nc(N)c2C#N)c2ccccc12 ?
Solution: > 100 µM (inactive)
